Readings of Plasma kallikrein IC50 [nM], inhibition of enzymatic activity, fluorogenic substrate for the listed binders
Study Target: human plasma kallikrein (human, UniProt P03952)
No end group written: not given here.
Recorded Endpoint: Plasma kallikrein IC50 [nM], inhibition of enzymatic activity, fluorogenic substrate (nM)

Binder	Result Unit	Comparator	Val
TFPI mut12EA (SEQ ID NO: 30) (designed binder) EAMHSFCAFKASTGPCKARIIRFFFNIFTRQCEEFIYGGCEGNQNRFESLEECKKMCTRD	nM	=	2340
TFPI mut4 (SEQ ID NO: 5) (designed binder) MHSFCAFKAETGPCRAAHPRWWFNIFTRQCEEFIYGGCEGNQNRFESLEECKKMCTRD	nM	=	3
TFPI mut3EA (SEQ ID NO: 19) (designed binder, ends and bridges not checked; cysteine pairing not given here) EAMHSFCAFKAETGPCRAAHPRWFFNIFTRQCEEFIYGGCEGNQNRFESLEECKKMCTRD	nM	=	3
TFPI mut7EA (SEQ ID NO: 25) (designed binder) EAMHSFCAFKAYTGPCKARIIRFFFNIFTRQCEEFIYGGCEGNQNRFESLEECKKMCTRD	nM	=	1190
TFPI mut11EA (SEQ ID NO: 29) (designed binder) EAMHSFCAFKAVTGPCRASFPRWFFNIFTRQCEEFIYGGCEGNQNRFESLEECKKMCTRD	nM	=	16
TFPI mut2 (SEQ ID NO: 7) (designed binder) MHSFCAFKADDGPCRAAMKRFFFNIFTRQCEEFIYGGCEGNQNRFESLEECKKMCTRD	nM	=	11
TFPI mut5 (SEQ ID NO: 8) (designed binder) MHSFCAFKADDGPCRAAHPRWWFNIFTRQCEEFIYGGCEGNQNRFESLEECKKMCTRD	nM	=	1
TFPI mut10EA (SEQ ID NO: 28) (designed binder) EAMHSFCAFKAYTGPCRAAIIRFFFNIFTRQCEEFIYGGCEGNQNRFESLEECKKMCTRD	nM	=	8
TFPI mut15EA (SEQ ID NO: 31) (designed binder) EAMHSFCAFKAVTGPCRAAMKRFWFNIFTRQCEEFIYGGCEGNQNRFESLEECKKMCTRD	nM	=	75
TFPI mut8EA (SEQ ID NO: 26) (designed binder) EAMHSFCAFKAYTGPCKAAIIRFFFNIFTRQCEEFIYGGCEGNQNRFESLEECKKMCTRD	nM	=	194
TFPI random (SEQ ID NO: 10) (designed binder) MHSFCAFKAETGPCRAAMKRFFFNIFTRQCEEFIYGGCEGNQNRFESLEECKKMCTRD	nM	=	48
TFPI mut13EA (SEQ ID NO: 18) (designed binder) EAMHSFCAFKAVTGPCKARIIRFFFNIFTRQCEEFIYGGCEGNQNRFESLEECKKMCTRD	nM	=	1480
TFPI mut4EA (SEQ ID NO: 20) (designed binder) EAMHSFCAFKAETGPCRAAHPRWWFNIFTRQCEEFIYGGCEGNQNRFESLEECKKMCTRD	nM	=	2
TFPI mut3 (SEQ ID NO: 4) (designed binder) MHSFCAFKAETGPCRAAHPRWFFNIFTRQCEEFIYGGCEGNQNRFESLEECKKMCTRD	nM	=	3
TFPI mut6 (SEQ ID NO: 9) (designed binder) MHSFCAFKADDGPCKAIMKRFWFNIFTRQCEEFIYGGCEGNQNRFESLEECKKMCTRD	nM	>	10000
